# reported HDAC2 activity raw data (signal); entries follow
Biological target: HDAC2 (Homo sapiens, UniProt Q92769)
Construct: purchased Reaction Biology Corporation (assay run by the CRO)
Sequence (Q92769 whole entry): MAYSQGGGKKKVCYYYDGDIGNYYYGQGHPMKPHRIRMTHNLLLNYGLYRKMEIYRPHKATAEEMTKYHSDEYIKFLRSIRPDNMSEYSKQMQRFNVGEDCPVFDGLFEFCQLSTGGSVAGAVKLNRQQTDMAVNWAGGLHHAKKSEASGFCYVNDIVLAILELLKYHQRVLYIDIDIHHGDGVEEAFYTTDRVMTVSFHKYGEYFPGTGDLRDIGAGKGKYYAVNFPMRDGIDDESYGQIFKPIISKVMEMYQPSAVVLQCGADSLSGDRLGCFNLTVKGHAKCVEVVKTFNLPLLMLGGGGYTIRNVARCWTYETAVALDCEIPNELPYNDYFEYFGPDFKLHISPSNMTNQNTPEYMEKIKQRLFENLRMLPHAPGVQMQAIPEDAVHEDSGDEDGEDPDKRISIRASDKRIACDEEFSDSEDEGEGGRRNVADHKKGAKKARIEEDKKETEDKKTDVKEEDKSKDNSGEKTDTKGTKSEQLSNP
Assay: HDAC2 inhibition, full IC50 measurement (Reaction Biology; fluorogenic p53 peptide RHKK(Ac)AMC)
Format: biochemical
Conditions: Conc. 1.23E-07 M, t1
Peptide text beside a SMILES is read from it.
Just the number.

N=C(N)NCCC[C@H]1NC(=O)[C@@H]2CCCN2C(=O)[C@H](CO)NC(=O)[C@@H](Cc2c[nH]cn2)NC(=O)[C@H](CCCCCS)NC(=O)[C@H](CCCCN)NC(=O)[C@H](Cc2ccc(O)cc2)NC(=O)[C@H]2CCCN2C(=O)[C@@H](CCC(N)=O)NC1=O [des3.1.0, SHA-dHis-Ser-Pro-dArg-dGln-dPro-Tyr-Lys] (HELM PEPTIDE1{K.[O=C([C@H](CCCCCS)N[*:1])[*:2]].[dH].S.P.[dR].[dQ].[dP].Y}$PEPTIDE1,PEPTIDE1,1:R1-9:R2$$$V2.0) : 657996

Would you kindly look at the next entry?
*Q* Need HDAC2 activity raw data (signal), item N=C(N)NCCC[C@@H]1NC(=O)[C@H](Cc2c[nH]c3ccccc23)NC(=O)[C@H](CC(=O)O)NC(=O)[C@@H](CO)NC(=O)[C@H](Cc2c[nH]c3ccccc23)NC(=O)[C@H](CCCCCS)NC(=O)[C@H](CCC(N)=O)NC1=O [des4.1.0, SHA-Trp-dSer-Asp-Trp-Arg-Gln] (HELM PEPTIDE1{D.W.R.Q.[O=C([C@H](CCCCCS)N[*:1])[*:2]].W.[dS]}$PEPTIDE1,PEPTIDE1,1:R1-7:R2$$$V2.0)
*A* 872533

* * *

Target: HDAC2 (Homo sapiens, UniProt Q92769)
Construct: purchased Reaction Biology Corporation (assay run by the CRO)
Experiment: Initial HDAC2 IC50 estimate (BPS Biosciences HDAC fluorogenic assay kit)
Type: biochemical
Details: HDAC2 activity (initial activity), Supplementary Dataset 2
Peptide text beside a SMILES is read from it.
measureName: pIC50
Please keep in mind that pIC50 is minus log10 of the molar concentration; only the number is needed.

*Q* Need pIC50, item NCCCC[C@@H]1NC(=O)[C@@H]2CCCN2C(=O)[C@H](CC(N)=O)NC(=O)[C@H](CCCCCS)NC(=O)CNC(=O)[C@H](Cc2c[nH]c3ccccc23)NC(=O)[C@@H](CCCCN)NC(=O)[C@H](CN)NC1=O [des1.1.3, SHA-Asn-Pro-Lys-Dap-dLys-Trp-Gly] (HELM PEPTIDE1{[NC[C@H](N[*:1])C(=O)[*:2]].[dK].W.G.[O=C([C@H](CCCCCS)N[*:1])[*:2]].N.P.K}$PEPTIDE1,PEPTIDE1,1:R1-8:R2$$$V2.0)
*A* 7.00

* * *

# reported HDAC6 activity raw data (signal); entries follow
Target: HDAC6 (Homo sapiens)
Construct: purchased Reaction Biology Corporation (assay run by the CRO)
Sequence (Q9UBN7 whole entry): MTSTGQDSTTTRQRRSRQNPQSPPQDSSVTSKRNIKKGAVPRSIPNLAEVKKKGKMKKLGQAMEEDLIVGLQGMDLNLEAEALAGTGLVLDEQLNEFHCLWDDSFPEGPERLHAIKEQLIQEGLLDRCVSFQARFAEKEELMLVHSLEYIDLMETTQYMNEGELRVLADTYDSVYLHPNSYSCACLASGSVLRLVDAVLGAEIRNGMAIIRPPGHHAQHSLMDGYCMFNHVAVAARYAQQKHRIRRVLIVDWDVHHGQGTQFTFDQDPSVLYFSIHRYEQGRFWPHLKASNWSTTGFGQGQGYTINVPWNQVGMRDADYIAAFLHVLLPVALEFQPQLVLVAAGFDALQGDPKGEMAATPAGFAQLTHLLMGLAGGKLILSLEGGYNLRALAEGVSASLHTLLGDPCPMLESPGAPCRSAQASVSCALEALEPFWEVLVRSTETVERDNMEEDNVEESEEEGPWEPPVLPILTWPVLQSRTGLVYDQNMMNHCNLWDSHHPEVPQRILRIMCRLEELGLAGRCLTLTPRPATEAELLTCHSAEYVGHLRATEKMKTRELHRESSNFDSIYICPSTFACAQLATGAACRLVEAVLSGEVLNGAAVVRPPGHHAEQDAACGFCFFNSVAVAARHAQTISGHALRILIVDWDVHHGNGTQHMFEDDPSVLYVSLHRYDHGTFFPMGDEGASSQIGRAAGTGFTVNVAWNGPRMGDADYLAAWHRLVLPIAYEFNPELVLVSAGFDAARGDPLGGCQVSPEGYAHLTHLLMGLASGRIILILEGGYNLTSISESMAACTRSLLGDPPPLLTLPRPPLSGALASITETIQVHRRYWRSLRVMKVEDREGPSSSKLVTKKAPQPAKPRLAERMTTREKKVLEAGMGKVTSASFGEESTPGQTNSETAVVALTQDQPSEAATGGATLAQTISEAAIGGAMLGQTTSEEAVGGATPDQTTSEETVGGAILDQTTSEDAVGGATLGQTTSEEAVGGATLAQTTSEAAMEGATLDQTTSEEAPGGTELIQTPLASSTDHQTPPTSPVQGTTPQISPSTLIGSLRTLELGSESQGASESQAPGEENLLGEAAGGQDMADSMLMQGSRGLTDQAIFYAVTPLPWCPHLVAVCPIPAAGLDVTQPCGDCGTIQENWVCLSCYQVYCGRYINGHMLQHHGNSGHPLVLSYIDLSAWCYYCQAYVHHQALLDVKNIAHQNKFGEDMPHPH
Assay: HDAC6 inhibition, full IC50 measurement (Reaction Biology; fluorogenic p53 peptide RHKK(Ac)AMC)
Type: biochemical
Conditions: Conc. 1.11E-06 M, t2
Peptide text beside a SMILES is read from it.
Just the number.

*Q* # query: HDAC6 activity raw data (signal) | item N=C(N)NCCC[C@@H]1NC(=O)[C@@H](CCCNC(=N)N)NC(=O)[C@H]2CCCN2C(=O)[C@@H](Cc2c[nH]cn2)NC(=O)[C@H](Cc2ccc(O)cc2)NC(=O)[C@H](CCCCCS)NC(=O)[C@H](CCc2ccccc2)NC(=O)[C@@H](CO)NC(=O)[C@H](CC(=O)O)NC1=O [des3.3.1, SHA-Tyr-dHis-dPro-dArg-Arg-Asp-dSer-C27] (HELM PEPTIDE1{[O=C([C@H](CCCCCS)N[*:1])[*:2]].Y.[dH].[dP].[dR].R.D.[dS].[O=C([C@H](CCc1ccccc1)N[*:1])[*:2]]}$PEPTIDE1,PEPTIDE1,1:R1-9:R2$$$V2.0) | system: HDAC6 (Homo sapiens)
*A* 12694

*Q* # query: HDAC6 activity raw data (signal) | item CC(C)C[C@H]1NC(=O)[C@H](Cc2c[nH]c3ccccc23)NC(=O)[C@H](CCCCCS)NC(=O)[C@@H](Cc2ccc(O)cc2)NC(=O)[C@@H](C(C)C)NC(=O)[C@H](Cc2c[nH]cn2)NC(=O)CNC(=O)CNC(=O)[C@@H](CO)NC1=O [des2.2.0, SHA-Trp-dLeu-dSer-Gly-Gly-His-dVal-dTyr] (HELM PEPTIDE1{G.G.H.[dV].[dY].[O=C([C@H](CCCCCS)N[*:1])[*:2]].W.[dL].[dS]}$PEPTIDE1,PEPTIDE1,1:R1-9:R2$$$V2.0) | system: HDAC6 (Homo sapiens)
*A* 80880

The measurements presented in this section are drawn from paper PMC8185074.
